System: Rattus norvegicus
Assay: Efficacy in rat pyresis assay upon oral administration
Format: functional
measured-property: ED50 (mg/kg)

INSERT INTO measurements (compound, measured_property, observed_result) VALUES
  ('CS(=O)(=O)c1ccc(-c2cc(Cl)cnc2-c2cccnc2)cc1', 'ED50', 0.8),
  ('CS(=O)(=O)c1ccc(-c2cc(C(F)(F)F)cnc2-c2cccnc2)cc1', 'ED50', 1.4),
  ('Cc1ccc(-c2ncc(Cl)cc2-c2ccc(S(C)(=O)=O)cc2)cn1 [ETORICOXIB]', 'ED50', 0.5),
  ('CS(=O)(=O)c1ccc(-c2cc(Cl)cnc2-c2ccc(C3CC3)nc2)cc1', 'ED50', 4.9),
  ('COc1ccc2c(c1)c(CC(=O)O)c(C)n2C(=O)c1ccc(Cl)cc1 [INDOMETHACIN]', 'ED50', 1.1),
  ('CCc1ccc(-c2ncc(Cl)cc2-c2ccc(S(C)(=O)=O)cc2)cn1', 'ED50', 2.6);

----------
// concentration at 0.5 h lookup, one value per entry
Experiment: Compound was evaluated for plasma concentration in rats when administered at 20 mg/kg in methocel at 0.5 hr
Format: ADME, organism-based
Set-up: dose 20 mg/kg
Conditions: rat, read-out: Cmax
measured-property: concentration at 0.5 h (µM)

INSERT INTO results (compound, measured_property, unit_annotation, observed_result) VALUES
  ('CS(=O)(=O)c1ccc(-c2cccnc2-c2ccccc2)cc1', 'concentration at 0.5 h', 'µM', 40),
  ('CCc1ccc(-c2ncc(Cl)cc2-c2ccc(S(C)(=O)=O)cc2)cn1', 'concentration at 0.5 h', 'µM', 9);

----------
Tested on: Rattus norvegicus
Test: Efficacy in rat paw edema assay upon oral administration.
Type: functional
Decide using ED50 alone. Strictly below 2 mg/kg: Fulfilled. Equal to or above 2 mg/kg: Not fulfilled.

INSERT INTO results (compound, system, cat) VALUES
  ('CS(=O)(=O)c1ccc(-c2cccnc2-c2ccccc2)cc1', 'Rattus norvegicus', 'Not fulfilled'),
  ('CS(=O)(=O)c1ccc(-c2cc(C(F)(F)F)cnc2-c2cccnc2)cc1', 'Rattus norvegicus', 'Fulfilled'),
  ('CCc1ccc(-c2ncc(Cl)cc2-c2ccc(S(C)(=O)=O)cc2)cn1', 'Rattus norvegicus', 'Fulfilled'),
  ('CS(=O)(=O)c1ccc(-c2cc(Br)sc2-c2ccc(F)cc2)cc1', 'Rattus norvegicus', 'Fulfilled'),
  ('Cc1ccc(-c2ncc(Cl)cc2-c2ccc(S(C)(=O)=O)cc2)cn1', 'Rattus norvegicus', 'Fulfilled'),
  ('CS(=O)(=O)c1ccc(-c2cc(Cl)cnc2-c2cccnc2)cc1', 'Rattus norvegicus', 'Not fulfilled');

----------
Target: Prostaglandin G/H synthase 2 (Homo sapiens)
Test: In vitro inhibition of PGE-2 produced by arachidonic acid-stimulated CHO cells stably expressing human Prostaglandin G/H synthase 2
Decide using IC50 alone. Strictly below 0.07 µM: Satisfied. Equal to or above 0.07 µM: Not satisfied.

INSERT INTO assay_data (compound, cat) VALUES
  ('Cc1ccncc1-c1ncc(Cl)cc1-c1ccc(S(C)(=O)=O)cc1', 'Not satisfied'),
  ('Cc1ccc(-c2ncc(Cl)cc2-c2ccc(S(N)(=O)=O)cc2)cn1', 'Satisfied'),
  ('Cc1cncc(-c2ncc(Cl)cc2-c2ccc(S(C)(=O)=O)cc2)c1', 'Not satisfied'),
  ('Cc1ncccc1-c1ncc(Cl)cc1-c1ccc(S(C)(=O)=O)cc1', 'Not satisfied'),
  ('CS(=O)(=O)c1ccc(-c2cc(Cl)cnc2-c2ccc(C3CC3)nc2)cc1', 'Satisfied'),
  ('Cc1cnc(-c2cccnc2)c(-c2ccc(S(C)(=O)=O)cc2)c1', 'Not satisfied'),
  ('CS(=O)(=O)c1ccc(-c2cccnc2-c2cccnc2)cc1', 'Not satisfied'),
  ('CS(=O)(=O)c1ccc(-c2cc(Cl)cnc2-c2cccnc2)cc1', 'Satisfied');

----------
Biological target: Prostaglandin G/H synthase 1 (Homo sapiens, UniProt P23219)
Sequence (P23219 whole entry): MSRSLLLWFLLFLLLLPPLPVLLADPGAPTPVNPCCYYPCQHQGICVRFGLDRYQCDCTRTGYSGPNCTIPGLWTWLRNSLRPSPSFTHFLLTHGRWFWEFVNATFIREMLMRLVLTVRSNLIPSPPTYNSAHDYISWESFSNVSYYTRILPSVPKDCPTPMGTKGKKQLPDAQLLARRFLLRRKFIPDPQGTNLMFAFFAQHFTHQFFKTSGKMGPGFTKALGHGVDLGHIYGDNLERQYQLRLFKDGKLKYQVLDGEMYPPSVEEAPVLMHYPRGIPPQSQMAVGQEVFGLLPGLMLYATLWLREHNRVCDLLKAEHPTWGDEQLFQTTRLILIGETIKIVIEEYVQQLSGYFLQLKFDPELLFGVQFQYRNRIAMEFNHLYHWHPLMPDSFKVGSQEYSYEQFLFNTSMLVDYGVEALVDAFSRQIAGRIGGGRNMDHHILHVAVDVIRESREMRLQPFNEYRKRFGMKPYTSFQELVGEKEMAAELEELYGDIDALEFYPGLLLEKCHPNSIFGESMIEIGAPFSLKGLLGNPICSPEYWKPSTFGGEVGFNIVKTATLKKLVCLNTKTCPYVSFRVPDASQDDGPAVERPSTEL
Experiment: Inhibition of Prostaglandin G/H synthase 1 was measured by the inhibition of PGE-2 produced by microsomes from U937 cells at subsaturating arachidonic acid conc.
// IC50 lookup, one value per entry
measured-property: IC50 (µM)

INSERT INTO measurements (compound, measured_property, inequality_operator, observed_result) VALUES
  ('CS(=O)(=O)c1ccc(-c2cc(C(F)(F)F)cnc2-c2cccnc2)cc1', 'IC50', '=', 31),
  ('Cc1ccncc1-c1ncc(Cl)cc1-c1ccc(S(C)(=O)=O)cc1', 'IC50', '>', 100),
  ('Cc1ccc(-c2ncc(Cl)cc2-c2ccc(S(N)(=O)=O)cc2)cn1', 'IC50', '=', 0.8);

----------
Assay: Compound was evaluated for plasma concentration in rats when administered at 20 mg/kg in methocel at 2 hr
Format: ADME, organism-based
Parameters: dose 20 mg/kg
Settings: rat, read-out: Cmax
measured-property: concentration at 2 h (µM)

INSERT INTO assay_data (compound, unit_annotation, observed_result) VALUES
  ('CS(=O)(=O)c1ccc(-c2cc(Cl)cnc2-c2ccc(C3CC3)nc2)cc1', 'µM', 9),
  ('CS(=O)(=O)c1ccc(-c2cc(C(F)(F)F)cnc2-c2cccnc2)cc1', 'µM', 24),
  ('CS(=O)(=O)c1ccc(-c2cc(Cl)cnc2-c2cccnc2)cc1', 'µM', 52);

----------
Assay: Compound was evaluated for plasma concentration in rats when administered at 20 mg/kg in methocel at 1 hr
Type: ADME, organism-based
Set-up: dose 20 mg/kg
Conditions: rat, read-out: Cmax
measured-property: concentration at 1 h (µM)

INSERT INTO measurements (compound, unit_annotation, observed_result) VALUES
  ('Cc1ccc(-c2ncc(Cl)cc2-c2ccc(S(C)(=O)=O)cc2)cn1', 'µM', 30);

----------
Target: Prostaglandin G/H synthase 1 (Homo sapiens)
Assay: Inhibition of Prostaglandin G/H synthase 1 was measured by the inhibition of PGE-2 produced by microsomes from U937 cells at subsaturating arachidonic acid conc.
measured-property: IC50

INSERT INTO assay_data (compound, measured_property, observed_result) VALUES
  ('CS(=O)(=O)c1ccc(-c2cc(Cl)cnc2-c2cccnc2)cc1', 'IC50', '19 µM'),
  ('Cc1cncc(-c2ncc(Cl)cc2-c2ccc(S(C)(=O)=O)cc2)c1', 'IC50', '> 100 µM'),
  ('Cc1ccc(-c2ncc(Cl)cc2-c2ccc(S(C)(=O)=O)cc2)cn1 [ETORICOXIB]', 'IC50', '12 µM'),
  ('CS(=O)(=O)c1ccc(-c2cc(Cl)cnc2-c2ccncc2)cc1', 'IC50', '81 µM'),
  ('CS(=O)(=O)c1ccc(-c2cc(Cl)cnc2-c2ccccn2)cc1', 'IC50', '63 µM'),
  ('CCc1ccc(-c2ncc(Cl)cc2-c2ccc(S(C)(=O)=O)cc2)cn1', 'IC50', '13 µM'),
  ('CS(=O)(=O)c1ccc(-c2cccnc2-c2cccnc2)cc1', 'IC50', '> 100 µM'),
  ('Cc1cnc(-c2cccnc2)c(-c2ccc(S(C)(=O)=O)cc2)c1', 'IC50', '59 µM'),
  ('CS(=O)(=O)c1ccc(-c2cc(Cl)cnc2-c2ccc(C3CC3)nc2)cc1', 'IC50', '6 µM'),
  ('CS(=O)(=O)c1ccc(-c2cccnc2-c2ccccc2)cc1', 'IC50', '20 µM'),
  ('Cc1ncccc1-c1ncc(Cl)cc1-c1ccc(S(C)(=O)=O)cc1', 'IC50', '45 µM');

----------
Molecular target: Prostaglandin G/H synthase 2 (Homo sapiens, UniProt P35354)
Sequence (P35354 whole entry): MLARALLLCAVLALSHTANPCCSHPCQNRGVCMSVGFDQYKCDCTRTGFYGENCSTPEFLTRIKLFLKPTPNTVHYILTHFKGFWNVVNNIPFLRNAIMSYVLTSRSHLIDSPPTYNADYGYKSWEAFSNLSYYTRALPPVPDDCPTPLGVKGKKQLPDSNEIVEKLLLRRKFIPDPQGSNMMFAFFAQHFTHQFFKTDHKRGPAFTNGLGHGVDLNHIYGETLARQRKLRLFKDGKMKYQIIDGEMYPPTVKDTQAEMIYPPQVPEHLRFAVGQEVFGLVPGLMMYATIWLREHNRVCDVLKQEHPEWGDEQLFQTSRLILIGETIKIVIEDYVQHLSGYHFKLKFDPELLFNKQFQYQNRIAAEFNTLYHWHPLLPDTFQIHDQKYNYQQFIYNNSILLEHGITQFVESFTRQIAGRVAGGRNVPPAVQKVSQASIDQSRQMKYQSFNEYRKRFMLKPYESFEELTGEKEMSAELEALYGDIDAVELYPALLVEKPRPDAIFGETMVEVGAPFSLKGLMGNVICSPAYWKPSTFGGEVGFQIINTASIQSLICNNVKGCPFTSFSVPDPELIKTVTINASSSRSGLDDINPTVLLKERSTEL
// IC50 lookup, one value per entry
measured-property: IC50

INSERT INTO assay_data (compound, measured_property, observed_result) VALUES
  ('CS(=O)(=O)c1ccc(-c2cc(Cl)cnc2-c2ccccn2)cc1', 'IC50', '5800 nM'),
  ('CS(=O)(=O)c1ccc(-c2cccnc2-c2cccnc2)cc1', 'IC50', '> 33000 nM'),
  ('Cc1cncc(-c2ncc(Cl)cc2-c2ccc(S(C)(=O)=O)cc2)c1', 'IC50', '3800 nM'),
  ('Cc1ccc(-c2ncc(Cl)cc2-c2ccc(S(N)(=O)=O)cc2)cn1', 'IC50', '2400 nM'),
  ('CS(=O)(=O)c1ccc(-c2cc(Cl)cnc2-c2cccnc2)cc1', 'IC50', '900 nM'),
  ('Cc1ncccc1-c1ncc(Cl)cc1-c1ccc(S(C)(=O)=O)cc1', 'IC50', '2600 nM'),
  ('Cc1ccncc1-c1ncc(Cl)cc1-c1ccc(S(C)(=O)=O)cc1', 'IC50', '2700 nM'),
  ('Cc1cnc(-c2cccnc2)c(-c2ccc(S(C)(=O)=O)cc2)c1', 'IC50', '2100 nM');

These data points were gathered from ChEMBL document CHEMBL1130609.
